Data origin, for the record: patent US20160222014A1

- system_name: FAK phosphorylated at Y397 in HEK-FAK cell line overexpressing human FL FAK protein (Homo sapiens, UniProt Q05397)
- Construct: expressed in transfected cells
- Sequence (Q05397 whole entry): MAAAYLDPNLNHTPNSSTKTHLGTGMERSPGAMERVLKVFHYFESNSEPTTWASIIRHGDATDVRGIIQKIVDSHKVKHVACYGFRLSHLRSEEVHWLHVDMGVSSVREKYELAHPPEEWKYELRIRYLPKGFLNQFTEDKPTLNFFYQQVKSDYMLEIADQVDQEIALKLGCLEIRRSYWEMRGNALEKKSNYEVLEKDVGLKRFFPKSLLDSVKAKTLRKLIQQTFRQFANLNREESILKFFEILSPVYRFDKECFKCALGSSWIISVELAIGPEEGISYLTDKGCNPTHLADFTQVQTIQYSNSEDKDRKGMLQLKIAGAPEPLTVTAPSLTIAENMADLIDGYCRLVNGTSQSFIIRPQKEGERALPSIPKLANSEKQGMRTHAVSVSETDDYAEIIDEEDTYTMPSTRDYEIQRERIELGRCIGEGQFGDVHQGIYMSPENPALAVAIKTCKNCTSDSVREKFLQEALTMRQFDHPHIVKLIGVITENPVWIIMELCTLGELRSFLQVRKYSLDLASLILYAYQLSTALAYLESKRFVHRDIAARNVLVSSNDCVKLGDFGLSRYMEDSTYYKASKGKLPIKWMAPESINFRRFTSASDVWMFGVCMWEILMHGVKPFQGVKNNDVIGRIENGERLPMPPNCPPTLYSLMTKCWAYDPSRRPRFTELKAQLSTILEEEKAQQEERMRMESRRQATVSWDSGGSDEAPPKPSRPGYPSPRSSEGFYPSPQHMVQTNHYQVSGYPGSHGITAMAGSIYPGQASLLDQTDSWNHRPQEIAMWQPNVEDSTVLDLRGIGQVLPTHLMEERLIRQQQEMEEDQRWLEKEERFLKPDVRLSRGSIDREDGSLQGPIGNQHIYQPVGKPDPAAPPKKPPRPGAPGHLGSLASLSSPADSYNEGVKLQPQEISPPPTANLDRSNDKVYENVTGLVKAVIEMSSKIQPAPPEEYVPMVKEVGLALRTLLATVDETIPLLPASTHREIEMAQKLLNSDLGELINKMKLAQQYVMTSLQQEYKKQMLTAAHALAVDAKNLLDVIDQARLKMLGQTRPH
- assay_explanation: Cell based assay, Phospho-FAK ELISA
- test_conditions: HEK stb; read-out: pFAK EC50 (μM) HEK stb
Reported values of EC50 for individual entries

[[record]]
compound = "CN(C)Cc1ccc(Nc2ncc3ccn(Cc4cccnc4N(C)S(C)(=O)=O)c3n2)cc1 [Example 207]"
result_value = "> 1 µM"

[[record]]
compound = "COc1c(Nc2ncc3ccn(Cc4ccccc4N(C)S(C)(=O)=O)c3n2)ccc(N2CCNCC2)c1F [Example 456]"
result_value = "> 1 µM"

[[record]]
compound = "Cc1ccnc2c(S(=O)(=O)n3ccc4cnc(Nc5ccc(N6CCNCC6)cc5)nc43)cccc12 [Example 398]"
result_value = "> 1 µM"

[[record]]
compound = "CN(c1ncccc1Cn1ccc2cnc(Nc3ccc4[nH]c(C(=O)N5CCNCC5)cc4c3)nc21)S(C)(=O)=O [Example 696]"
result_value = "> 1 µM"

[[record]]
compound = "COc1cc(N2CCC(O)CC2)ccc1Nc1cc2c(ccn2S(=O)(=O)c2cccc3cccnc23)cn1 [Example 400]"
result_value = "< 0.02 µM"

[[record]]
compound = "COCCN1CCN(c2ccc(Nc3cc4c(ccn4S(=O)(=O)c4cccc5cccnc45)cn3)c(OC)c2)CC1 [Example 444]"
result_value = "< 0.02 µM"


Entry CN(c1ncccc1Cn1ccc2cnc(Nc3ccc(N4CC5CC4CN5)cc3)cc21)S(C)(=O)=O (stereo not shown) [Example 371] — recorded EC50 = > 1 µM

---

Reported values of pIC50 for individual entries
- system_name: recombinant human FAK1 (Homo sapiens, UniProt Q05397)
- Construct: fused on or other part: N-terminal 6xHis tag
- assay_explanation: FAK1 HTRF assay
- Format: biochemical
pIC50: −log10 of the molar value.

[[record]]
compound = "O=S(=O)(c1ccc(OC(F)(F)F)cc1)n1ccc2cnc(Nc3ccc4ncsc4c3)cc21"
value_kind = "pIC50"
result_value = "< 6.00"


Entry O=S(=O)(c1cccc2cccnc12)n1ccc2cnc(Nc3ccc(CN4CCCC(CO)C4)cc3)nc21 (centres unmarked) — recorded pIC50 = > 7.70

---

- system_name: recombinant human FAK1 (Homo sapiens, UniProt Q05397)
- Construct: fused on or other part: N-terminal 6xHis tag
- assay_explanation: FAK1 HTRF assay
pIC50: −log10 of the molar value.
Reported values of pIC50 for individual entries

Worked examples follow.
[[record]]
compound = "CN(c1ccc(F)cc1Cn1ccc2cnc(Nc3ccc(N4CCCC(N)C4)cc3)nc21)S(C)(=O)=O (stereo not shown) [Example 800]"
system_name = "recombinant human FAK1 (Homo sapiens, UniProt Q05397)"
result_value = "> 7.70"

[[record]]
compound = "C[C@H]1CN(c2ccc(Nc3ncc4ccn(Cc5cccnc5N(C)S(C)(=O)=O)c4n3)nc2)CCN1 [Example 585]"
system_name = "recombinant human FAK1 (Homo sapiens, UniProt Q05397)"
result_value = "< 6.00"

[[record]]
compound = "CN(c1ccc(F)cc1Cn1ccc2cnc(Nc3ccc(N4CCNCC4)c(F)c3)nc21)S(C)(=O)=O [Example 802]"
system_name = "recombinant human FAK1 (Homo sapiens, UniProt Q05397)"
result_value = "> 7.70"


Note: attention shifts to another entry.
The recorded pIC50 with recombinant human FAK1 (Homo sapiens, UniProt Q05397) for Cc1cc(Nc2cc3c(cn2)cnn3S(=O)(=O)c2cccc3cccnc23)ccc1N1CCOCC1 [Example 374] was > 7.70
